Entries annotated with measured IC50
# SYSTEM UNDER TEST: metalloelastase (MMP-12) (Homo sapiens, UniProt P39900)
# Sequence (P39900 106-470): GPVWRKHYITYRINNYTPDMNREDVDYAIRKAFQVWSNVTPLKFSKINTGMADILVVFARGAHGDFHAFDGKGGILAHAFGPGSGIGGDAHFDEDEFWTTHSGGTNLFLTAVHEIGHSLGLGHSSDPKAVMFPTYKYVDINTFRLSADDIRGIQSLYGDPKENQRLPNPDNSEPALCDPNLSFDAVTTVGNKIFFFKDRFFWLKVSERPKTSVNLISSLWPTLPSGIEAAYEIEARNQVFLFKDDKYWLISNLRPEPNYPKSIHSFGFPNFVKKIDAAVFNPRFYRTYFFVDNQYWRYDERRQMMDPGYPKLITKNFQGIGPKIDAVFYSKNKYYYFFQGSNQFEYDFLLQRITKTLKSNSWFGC
PARAMETER MEASURED: IC50 (nM)

> print(dat)
                                   compound                         system.under.test  quantitative.result
1  CCN(CC)CC#CC(CS(=O)(=O)N1CCC(c2ccc(OC)cc2)CC1)N(O)C=O (centres unmarked)  metalloelastase (MMP-12) (Homo sapiens, UniProt P39900)                    6
2  CCCCCC#CC(CS(=O)(=O)N1CCC(c2ccc(OC)cc2)CC1)N(O)C=O (centres unmarked)  metalloelastase (MMP-12) (Homo sapiens, UniProt P39900)                   18
3  CCCCCC#CC(CS(=O)(=O)N1CCCN(c2ccc(OCC)cc2)CC1)N(O)C=O (centres unmarked)  metalloelastase (MMP-12) (Homo sapiens, UniProt P39900)                   24
4  O=CN(O)C(C#Cc1ccc(-c2ncon2)cc1)CS(=O)(=O)N1CCN(c2ccc(F)cc2)CC1 (centres unmarked)  metalloelastase (MMP-12) (Homo sapiens, UniProt P39900)                   95
5  O=CN(O)C(C#Cc1ccc2c(c1)OCO2)CS(=O)(=O)N1CCN(c2ccc(F)cc2)CC1 (centres unmarked)  metalloelastase (MMP-12) (Homo sapiens, UniProt P39900)                   46

====

# SYSTEM UNDER TEST: collagenase (MMP-1) (Homo sapiens, UniProt P03956)
# Sequence (P03956 100-469): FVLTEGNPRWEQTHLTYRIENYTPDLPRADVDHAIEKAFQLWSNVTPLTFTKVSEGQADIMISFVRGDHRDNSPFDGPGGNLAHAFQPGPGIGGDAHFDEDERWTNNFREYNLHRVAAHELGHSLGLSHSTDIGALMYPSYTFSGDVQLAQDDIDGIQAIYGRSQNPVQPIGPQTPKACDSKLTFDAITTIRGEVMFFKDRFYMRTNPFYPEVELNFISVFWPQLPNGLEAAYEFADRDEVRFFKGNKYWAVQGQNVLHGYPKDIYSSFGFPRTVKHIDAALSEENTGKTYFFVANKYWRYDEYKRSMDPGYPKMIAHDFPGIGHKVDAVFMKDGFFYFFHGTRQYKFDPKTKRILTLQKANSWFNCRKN
PARAMETER MEASURED: IC50

> print(dat)
                                   compound  result
1  CC(C)(CC#Cc1ccccc1)C(CS(=O)(=O)N1CCN(c2ccc(F)cc2)CC1)N(O)C=O (stereo not drawn)  > 5 µM
2  COc1ccc(N2CCN(S(=O)(=O)CC(C#Cc3cccnc3)N(O)C=O)CC2)cc1 (stereo not drawn)  > 5 µM
3  CCCCCC#CC(CS(=O)(=O)N1CCCN(c2ccc(OCC)cc2)CC1)N(O)C=O (stereo not drawn)  > 5 µM
